Reference source for all entries: patent US20100009970A1

pIC50 overview
Test system: Huh7 cells expressing a subgenomic RNA replicon of Con1 (genotype 1b) sequence origin
Test: microbe, parasite or virus in culture
Details: Hepatitis C virus, Huh-7
Where a name gives a salt, the structure may show the parent alone.
Please keep in mind that pIC50 is minus log10 of the molar concentration; only the number is needed.

Past entries and their recorded results:
So, C[C@H]1CC(=O)C[C@@H]2CC[C@H]3[C@@H]4CC[C@H](O)[C@@]4(C)CC[C@@H]3[C@]21C [Mesterolone, mesterolone, reference compound] ? Its pIC50 was 5.29

So, CC(C)(C)NC(=O)NC(C(=O)N1C[C@H]2[C@@H]([C@H]1C(=O)NC(CC1CCC1)C(=O)C(N)=O)C2(C)C)C(C)(C)C (some centres unmarked) [Boceprevir (SCH 503034), Boceprevir, reference compound] ? Its pIC50 was 6.59

So, CCCCC1C(=O)NN(c2ccccc2)C1=O (centres unmarked) [Mofebutazone, mofebutazone, reference compound] ? Its pIC50 was 4.84

So, Oc1ccc(-c2nc(-c3ccc(F)cc3)c(-c3ccncc3)[nH]2)cc1 [SB-202190, reference compound] ? Its pIC50 was 5.29

So, Nc1ccccc1OCCCCCOc1ccccc1N [2,2′-(Pentamethylenedioxy)dianiline, reference compound] ? Its pIC50 was 6.57

So, Cc1ccc(O)c([C@H](CCN(C(C)C)C(C)C)c2ccccc2)c1 [Tolterodine (e.g., tartrate), Tolterodine, reference compound] ? Its pIC50 was 4.56

So, CC(CN(C)C)CN1c2ccccc2CCc2ccccc21 (centres unmarked) [Trimipramine (e.g., maleate), Trimipramine, reference compound] ? Its pIC50 was 4.81

So, C#C[C@]1(O)CC[C@H]2[C@@H]3CCc4cc(OC5CCCC5)ccc4[C@H]3CC[C@@]21C [Quinestrol, reference compound] ? Its pIC50 was 5.27

New cases:
So, COc1cc(NC(=O)Nc2cccc(CNC(=O)O[C@H]3CCOC3)c2)ccc1-c1cnco1 [Merimepodib (VX-497), merimepodib, reference compound] ? Its pIC50 was 6.32

So, C=C1C(=O)O[C@H]2[C@H]1CC/C(C)=C/CC[C@@]1(C)O[C@@H]21 [Parthenolide, reference compound] ? Its pIC50 was 5.57

So, Nc1nc(Cl)nc2c1ncn2[C@H]1C[C@H](O)[C@@H](CO)O1 [Cladribine, 2-chloro-2′-deoxyadenosine, reference compound] ? Its pIC50 was 6.95

====

Tested on: Huh7 cells expressing a subgenomic RNA replicon of Con1 (genotype 1b) sequence origin
Test: microbe, parasite or virus in culture
Conditions: Hepatitis C virus, Huh-7
Structures can show the parent of a compound that is named as a salt.
QUANTITY MEASURED: IC50 (µM)
// return numeric value only (unit: µM, not printed)

Past entries and their recorded results:
The molecule CCCCC(=O)Nc1ccc2c(c1)[C@@H](NC)CC[C@H]2c1ccc(Cl)c(Cl)c1 [Sertraline A-Ring Reverse Pentanamide] , when measured on Huh7 cells expressing a subgenomic RNA replicon of Con1 (genotype 1b) sequence origin, yielded IC50 of 3.68

The molecule CN(C)C/C=C(/c1ccc(Br)cc1)c1cccnc1 [Zimelidine (e.g., dihydrochloride), Zimelidine, reference compound] , when measured on Huh7 cells expressing a subgenomic RNA replicon of Con1 (genotype 1b) sequence origin, yielded IC50 of 15.1

The molecule COC(=O)Nc1nc2ccc(Sc3ccccc3)cc2[nH]1 [Fenbendazole, reference compound] , when measured on Huh7 cells expressing a subgenomic RNA replicon of Con1 (genotype 1b) sequence origin, yielded IC50 of 0.419

The molecule CCc1c2c(nc3ccc(OC(=O)N4CCC(N5CCCCC5)CC4)cc13)-c1cc3c(c(=O)n1C2)COC(=O)[C@]3(O)CC [Irinotecan (e.g., hydrochloride), irinotecan (CPT-11), reference compound] , when measured on Huh7 cells expressing a subgenomic RNA replicon of Con1 (genotype 1b) sequence origin, yielded IC50 of 1.56

The molecule N=C(NCc1ccccc1)NC(=O)c1nc(Cl)c(N)nc1N [Benzamil (e.g., HCl), benzamil, reference compound] , when measured on Huh7 cells expressing a subgenomic RNA replicon of Con1 (genotype 1b) sequence origin, yielded IC50 of 4.73

New cases:
The molecule CN1CCN(CCCN2c3ccccc3Sc3ccc(C(F)(F)F)cc32)CC1 [Trifluoperazine (e.g., hydrochloride), Trifluoperazine, reference compound] , when measured on Huh7 cells expressing a subgenomic RNA replicon of Con1 (genotype 1b) sequence origin, yielded IC50 of 4.97

The molecule CCC(C)(C)C(=O)O[C@H]1C[C@@H](C)C=C2C=C[C@H](C)[C@H](CC[C@@H]3C[C@@H](O)CC(=O)O3)[C@H]21 [Simvastatin, simvastatin, reference compound] , when measured on Huh7 cells expressing a subgenomic RNA replicon of Con1 (genotype 1b) sequence origin, yielded IC50 of 21.3
